# System name: T1, factor VIIIa A1/A3C1C2 dimer, wild type (human, UniProt P00451 20-391; P00451 1709-2351)
# T1 sequence 1: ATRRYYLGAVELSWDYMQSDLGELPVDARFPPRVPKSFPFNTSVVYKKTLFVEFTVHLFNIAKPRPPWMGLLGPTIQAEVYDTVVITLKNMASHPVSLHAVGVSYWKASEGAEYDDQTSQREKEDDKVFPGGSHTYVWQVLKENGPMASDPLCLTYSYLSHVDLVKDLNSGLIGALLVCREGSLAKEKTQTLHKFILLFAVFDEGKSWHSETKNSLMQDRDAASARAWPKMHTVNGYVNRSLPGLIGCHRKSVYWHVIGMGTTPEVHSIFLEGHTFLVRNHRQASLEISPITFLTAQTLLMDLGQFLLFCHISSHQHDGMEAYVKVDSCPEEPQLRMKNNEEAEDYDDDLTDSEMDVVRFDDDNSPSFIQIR
# T1 sequence 2: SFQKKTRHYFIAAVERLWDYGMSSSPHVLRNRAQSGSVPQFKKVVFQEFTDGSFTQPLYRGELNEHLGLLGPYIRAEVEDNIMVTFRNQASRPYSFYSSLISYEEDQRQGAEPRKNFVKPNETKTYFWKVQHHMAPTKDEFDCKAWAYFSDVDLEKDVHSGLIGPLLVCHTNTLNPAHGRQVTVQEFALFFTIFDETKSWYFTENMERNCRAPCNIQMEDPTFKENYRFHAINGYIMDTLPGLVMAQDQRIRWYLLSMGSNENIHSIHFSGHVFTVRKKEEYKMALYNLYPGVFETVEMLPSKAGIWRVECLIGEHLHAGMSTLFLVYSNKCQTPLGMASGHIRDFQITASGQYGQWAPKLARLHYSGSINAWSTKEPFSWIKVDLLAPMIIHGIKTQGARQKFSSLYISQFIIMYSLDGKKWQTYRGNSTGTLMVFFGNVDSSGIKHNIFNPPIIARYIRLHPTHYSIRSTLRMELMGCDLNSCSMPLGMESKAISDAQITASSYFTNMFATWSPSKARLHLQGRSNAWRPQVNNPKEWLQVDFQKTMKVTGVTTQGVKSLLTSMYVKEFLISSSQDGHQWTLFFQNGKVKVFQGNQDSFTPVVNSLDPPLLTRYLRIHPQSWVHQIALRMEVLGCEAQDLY
# Method description: cell-based or functional assay
Measured parameter: Decay rate, Factor VIIIa (1.5 nM factor VIIIa, factor IXa absent) (min⁻¹)
The answer is to be given in min⁻¹; state only the numeric part.

Kindly note the recorded Decay rate, Factor VIIIa (1.5 nM factor VIIIa, factor IXa absent) for factor VIIIa A2 subunit, D519A and E665V (other) SVAKKHPKTWVHYIAAEEEDWDYAPLVLAPDDRSYKSQYLNNGPQRIGRKYKKVRFMAYTDETFKTREAIQHESGILGPLLYGEVGDTLLIIFKNQASRPYNIYPHGITDVRPLYSRRLPKGVKHLKDFPILPGEIFKYKWTVTVEAGPTKSDPRCLTRYYSSFVNMERDLASGLIGPLLICYKESVDQRGNQIMSDKRNVILFSVFDENRSWYLTENIQRFLPNPAGVQLEDPEFQASNIMHSINGYVFDSLQLSVCLHEVAYWYILSIGAQTDFLSVFFSGYTFKHKMVYVDTLTLFPFSGETVFMSMENPGLWILGCHNSDFRNRGMTALLKVSSCDKNTGDYYEDSYEDISAYLLSKNNAIEPR , which is 0.0222
